These entries and their values trace back to ChEMBL document CHEMBL1156829.

EXPERIMENT SUMMARY: NOVARTIS: Cytotoxicity against human hepatocellular carcinoma cell line (Huh7)
Type: toxicity, cell-based, Huh-7
APPLIED CONDITIONS: Huh7 cells (hepatocellular carcinoma cell line)
RECORDED ENDPOINT: CC50

stdin: Please report the recorded CC50 for `c1ccc(N=c2n(-c3ccccc3)c(=Nc3ccccc3)n(-c3ccccc3)c(=Nc3ccccc3)n2-c2ccccc2)cc1` .
stdout: > 10 µM

stdin: Please report the recorded CC50 for `COc1ccc(Cn2c(-c3ccc(Cl)cc3)c[n+]3ccccc23)cc1` .
stdout: > 10 µM

stdin: Please report the recorded CC50 for `CC1=NOC(=O)C1=Cc1ccc(-c2ccc([N+](=O)[O-])cc2)o1` .
stdout: > 100 µM

---

System: Plasmodium falciparum
EXPERIMENT SUMMARY: NOVARTIS: Inhibition of Plasmodium falciparum 3D7 (drug-susceptible) proliferation in erythrocyte-based infection assay
Assay type: functional, organism-based
APPLIED CONDITIONS: Plasmodium falciparum, 3D7
Can you tell me pEC50 for the items I'm about to list?
The scale used: pEC50 is minus the common logarithm of the concentration in molar units.

stdin: Please report the recorded pEC50 for COC1C(OC2OC(C)C(O)C(C)(O)C2OC)c2c(cc3c(c2O)C(=O)c2c(ccc4c2OC2OC4(C)C(OC4CC(C)([N+](=O)[O-])C(OC5OC(C)C(O)C(C)(O)C5OC)C(C)O4)C(N(C)C)C2O)C3=O)CC1(C)O (stereo not drawn) .
stdout: 6.88

stdin: Please report the recorded pEC50 for COc1cc(NC(C)CCCN(Cc2ccc(N(C)C)cc2)S(=O)(=O)c2c(C)cc(C)cc2C)c2ncccc2c1 (stereo not drawn) .
stdout: 6.27

stdin: Please report the recorded pEC50 for `COc1ccc(C=Cc2ccc3ccccc3[n+]2C)cc1OC` .
stdout: 6.36

stdin: Please report the recorded pEC50 for `Cn1c(=O)n(C)c2cc(NC(=O)CCl)ccc21` .
stdout: 5.83

---

Can you tell me EC50 for the items I'm about to list?
Tested on: Plasmodium falciparum
EXPERIMENT SUMMARY: NOVARTIS: Inhibition of Plasmodium falciparum W2 (drug-resistant) proliferation in erythrocyte-based infection assay
Format: functional, organism-based
APPLIED CONDITIONS: Plasmodium falciparum, W2; read-out: EC50

stdin: Please report the recorded EC50 for `CCCN1CCC(N2C[C@@H](NC3CCCCCC3)C[C@H]2C(=O)NCCc2ccc3c(c2)OCO3)CC1` .
stdout: > 833 nM

stdin: Please report the recorded EC50 for `O=C1C(=Cc2cc([N+](=O)[O-])cc(Br)c2O)C(=O)c2ccccc21` .
stdout: > 877 nM

stdin: Please report the recorded EC50 for `O=C1CC(=O)Nc2cc(S(=O)(=O)NC3CCCCCCC3)ccc2N1` .
stdout: > 796 nM

stdin: Please report the recorded EC50 for `CCC(=O)N1CCc2cc(Br)cc(S(=O)(=O)N3CCN(CC)CC3)c21` .
stdout: > 744 nM

---

Tested on: Plasmodium falciparum
EXPERIMENT SUMMARY: NOVARTIS: Inhibition of Plasmodium falciparum 3D7 (drug-susceptible) proliferation in erythrocyte-based infection assay
Format: functional, organism-based
APPLIED CONDITIONS: Plasmodium falciparum, 3D7
pEC50: −log10 of the molar value.
RECORDED ENDPOINT: pEC50

stdin: Please report the recorded pEC50 for `COc1ccccc1-c1nnc(Nc2nc3cc4c(cc3s2)OCO4)o1` .
stdout: < 5.98

stdin: Please report the recorded pEC50 for `CCN(CC)C(=O)c1cn(C2CCN(C(=O)CCc3cccc(OC)c3)CC2)nn1` .
stdout: < 5.90

stdin: Please report the recorded pEC50 for O=C1c2cccc3c(C4=NN(c5ccccc5)C(c5ccc(Cl)cc5)C4)ccc(c23)C(=O)N1c1ccccc1 (stereo unspecified) .
stdout: < 5.90

stdin: Please report the recorded pEC50 for `O=[N+]([O-])c1ccc(-n2ncc(-c3nc(-c4ccc(Cl)cc4)no3)c2C(F)(F)F)cc1` .
stdout: < 5.92

stdin: Please report the recorded pEC50 for `Cc1cc2c(cc1S(=O)(=O)N(C)C1CCCCC1)OCC(=O)N2` .
stdout: < 5.90

stdin: Please report the recorded pEC50 for `CCn1nc(/C=C/c2ccccc2)nc2c(=O)n(C)c(=O)nc1-2` .
stdout: < 5.48
